target: T1, Ssa1 (yeast (S. cerevisiae), UniProt P10591 1-642); test: pull-down; His6-Fbp1 (wild type or mutant) pulled down on Talon metal affinity resin; reactions with two or all three proteins; 6 μg each of His6-Fbp1 (1.6 μM), Hsp70 (0.9 μM) and GST-Fes1 (1.09 μM), with or without ATP, ADP or AMP (2.5 mM); 50 mM Tris-HCl pH 7.5, 150 mM NaCl, 2% glycerol, 5 mM MgCl2; 30 min at 4°C; washed with 5 mM imidazole, eluted with 250 mM imidazole; stained SDS-PAGE gels, bands quantified …; settings: both partners purified
T1 construct: Ssa1, yeast cytosolic Hsp70; non-tagged; also called Hsp70; source: E. coli Rosetta 2(DE3), purified as described [51]
T1 sequence (P10591 whole entry): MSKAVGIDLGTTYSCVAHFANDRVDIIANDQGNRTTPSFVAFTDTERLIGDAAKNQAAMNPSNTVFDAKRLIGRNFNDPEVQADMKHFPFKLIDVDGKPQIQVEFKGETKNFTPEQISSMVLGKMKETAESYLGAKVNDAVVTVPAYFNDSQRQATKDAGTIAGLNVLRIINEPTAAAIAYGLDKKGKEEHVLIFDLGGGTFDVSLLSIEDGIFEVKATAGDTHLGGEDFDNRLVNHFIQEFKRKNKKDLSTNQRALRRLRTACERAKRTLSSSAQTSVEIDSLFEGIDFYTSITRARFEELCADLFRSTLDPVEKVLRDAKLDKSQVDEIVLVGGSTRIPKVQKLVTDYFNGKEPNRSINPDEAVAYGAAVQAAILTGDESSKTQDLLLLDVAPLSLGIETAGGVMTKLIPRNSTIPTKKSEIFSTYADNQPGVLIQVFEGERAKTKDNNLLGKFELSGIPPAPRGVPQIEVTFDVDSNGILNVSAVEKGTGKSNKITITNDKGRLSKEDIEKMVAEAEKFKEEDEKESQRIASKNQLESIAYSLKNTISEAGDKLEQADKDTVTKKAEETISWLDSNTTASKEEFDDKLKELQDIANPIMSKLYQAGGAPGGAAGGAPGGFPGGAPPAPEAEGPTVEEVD
measured_metric: binding result

His6-Fbp1 P2A (enzyme, yeast (S. cerevisiae), UniProt P09201 1-348, looked up, Fbp1, yeast gluconeogenic enzyme, P2A; the initiator methionine is counted as residue 1; source: E. coli expression, purified; not shown: His6, N-terminal, kept) MATLVNGPRRDSTEGFDTDIITLPRFIIEHQKQFKNATGDFTLVLNALQFAFKFVSHTIRRAELVNLVGLAGASNFTGDQQKKLDVLGDEIFINAMRASGIIKVLVSEEQEDLIVFPTNTGSYAVCCDPIDGSSNLDAGVSVGTIASIFRLLPDSSGTINDVLRCGKEMVAACYAMYGSSTHLVLTLGDGVDGFTLDTNLGEFILTHPNLRIPPQKAIYSINEGNTLYWNETIRTFIEKVKQPQADNNNKPFSARYVGSMVADVHRTFLYGGLFAYPCDKKSPNGKLRLLYEAFPMAFLMEQAGGKAVNDRGERILDLVPSHIHDKSSIWLGSSGEIDKFLDHIGKSQ    binds
His6-Fbp1ΔP2 (enzyme, yeast (S. cerevisiae), UniProt P09201 1-348, looked up, Fbp1, yeast gluconeogenic enzyme, proline 2 deleted; the initiator methionine is counted as residue 1; also called Fbp1P2Δ; source: E. coli expression, purified; not shown: His6, N-terminal, kept) MTLVNGPRRDSTEGFDTDIITLPRFIIEHQKQFKNATGDFTLVLNALQFAFKFVSHTIRRAELVNLVGLAGASNFTGDQQKKLDVLGDEIFINAMRASGIIKVLVSEEQEDLIVFPTNTGSYAVCCDPIDGSSNLDAGVSVGTIASIFRLLPDSSGTINDVLRCGKEMVAACYAMYGSSTHLVLTLGDGVDGFTLDTNLGEFILTHPNLRIPPQKAIYSINEGNTLYWNETIRTFIEKVKQPQADNNNKPFSARYVGSMVADVHRTFLYGGLFAYPCDKKSPNGKLRLLYEAFPMAFLMEQAGGKAVNDRGERILDLVPSHIHDKSSIWLGSSGEIDKFLDHIGKSQ    binds
His6-Fbp1^P2A,S12A,T13A (enzyme, yeast (S. cerevisiae), UniProt P09201 1-348, looked up, Fbp1, yeast gluconeogenic enzyme, P2A,S12A,T13A; the initiator methionine is counted as residue 1; source: E. coli expression, purified; not shown: His6, N-terminal, kept) MATLVNGPRRDAAEGFDTDIITLPRFIIEHQKQFKNATGDFTLVLNALQFAFKFVSHTIRRAELVNLVGLAGASNFTGDQQKKLDVLGDEIFINAMRASGIIKVLVSEEQEDLIVFPTNTGSYAVCCDPIDGSSNLDAGVSVGTIASIFRLLPDSSGTINDVLRCGKEMVAACYAMYGSSTHLVLTLGDGVDGFTLDTNLGEFILTHPNLRIPPQKAIYSINEGNTLYWNETIRTFIEKVKQPQADNNNKPFSARYVGSMVADVHRTFLYGGLFAYPCDKKSPNGKLRLLYEAFPMAFLMEQAGGKAVNDRGERILDLVPSHIHDKSSIWLGSSGEIDKFLDHIGKSQ    binds
